Reported values of pIC50 for individual entries
Molecular target: Thermolysin (Bacillus thermoproteolyticus)
Sequence (P00800 233-548 limits assumed): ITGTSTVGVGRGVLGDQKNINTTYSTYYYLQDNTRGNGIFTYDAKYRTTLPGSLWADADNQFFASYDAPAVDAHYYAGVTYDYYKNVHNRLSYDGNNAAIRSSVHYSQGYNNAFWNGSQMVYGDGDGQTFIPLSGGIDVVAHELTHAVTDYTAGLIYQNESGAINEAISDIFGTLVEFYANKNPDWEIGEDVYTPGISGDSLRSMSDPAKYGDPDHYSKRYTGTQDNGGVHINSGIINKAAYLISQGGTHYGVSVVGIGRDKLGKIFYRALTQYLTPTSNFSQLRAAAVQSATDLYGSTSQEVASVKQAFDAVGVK
Experiment: Inhibition of Bacillus thermoproteolyticus thermolysin pretreated with compound for 15 mins followed by the addition of 75 uM Abz-Ala-Gly-leu-Ala-p-nitrobenzalamide as substrate by spectrofluorometry
pIC50 here is simply -log10 of the concentration when that concentration is written in mol/L.

Read the entry `CC(C)ON(CC(=O)NO)S(=O)(=O)c1ccc(Br)s1` and write its reported pIC50.
4.54

For the next question, use this molecule.
Hello, please tell me recorded pIC50 for this one: `O=C(CCNS(=O)(=O)c1ccc(-c2ccccc2)cc1)NO`
4.52
